- EXPERIMENTAL PROTOCOL: TD Phase (Groups 1 and 3): plasma and ocular tissue concentrations and pharmacokinetics of Compound 18 and its metabolite Compound 4 after once daily ocular instillation of Compound 18 nanosuspension for 7 days
- Assay type: in vivo, New Zealand white rabbits
- SETUP CONDITIONS: male, New Zealand white, rabbit, trabecular meshwork, other: ocular instillation, 0.8 mg/kg/day, TD Phase, Group 3, 8 h, Mean; read-out: Final Compound 4 Trabecular Meshwork Conc.
ASSAY ENDPOINT: concentration at 8 h (ng/g)
Reply with just the number (in ng/g).

concentration at 8 h for CCCc1nn(C)c2c(=O)[nH]c(-c3cc(S(=O)(=O)N4CC(CCCO)C4)ccc3OCC)nc12 [Compound 4] ? 13.9
